Give measured Kq for each item. Keep answers brief.
# assayed system: α-amylase (Sus scrofa)
# Sequence (P00690 16-511): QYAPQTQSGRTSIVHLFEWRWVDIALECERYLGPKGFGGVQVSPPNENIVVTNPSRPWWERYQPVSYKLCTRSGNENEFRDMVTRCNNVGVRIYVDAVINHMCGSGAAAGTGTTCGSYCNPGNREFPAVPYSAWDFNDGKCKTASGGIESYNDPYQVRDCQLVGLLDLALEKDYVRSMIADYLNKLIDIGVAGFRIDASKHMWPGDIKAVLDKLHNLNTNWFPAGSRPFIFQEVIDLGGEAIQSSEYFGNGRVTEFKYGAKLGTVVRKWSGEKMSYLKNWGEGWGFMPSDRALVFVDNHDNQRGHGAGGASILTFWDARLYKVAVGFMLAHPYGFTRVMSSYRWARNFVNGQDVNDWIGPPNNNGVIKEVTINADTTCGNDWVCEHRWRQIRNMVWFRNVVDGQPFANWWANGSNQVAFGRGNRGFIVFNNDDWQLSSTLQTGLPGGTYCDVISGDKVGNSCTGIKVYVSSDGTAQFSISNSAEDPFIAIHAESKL
# test protocol: Fluorescence quenching, binding and thermodynamics with α-amylase
# cond: T 298 K

Prompt: Tell us which Kq value is on record for Oc1ccc(-c2c3nc(c(-c4ccc(O)cc4)c4ccc([nH]4)c(-c4ccc(O)cc4)c4nc(c(-c5ccc(O)cc5)c5ccc2[nH]5)C=C4)C=C3)cc1
Response: 8.90 ± 0.06 ×10^12 L/mol/s

Prompt: Tell us which Kq value is on record for O=C(O)c1ccc(-c2c3nc(c(-c4ccc(C(=O)O)cc4)c4ccc([nH]4)c(-c4ccc(C(=O)O)cc4)c4nc(c(-c5ccc(C(=O)O)cc5)c5ccc2[nH]5)C=C4)C=C3)cc1.[Ni+2]
Response: 9.78 ± 0.03 ×10^12 L/mol/s

Prompt: Tell us which Kq value is on record for O=C(O)c1ccc(-c2c3nc(c(-c4ccc(C(=O)O)cc4)c4ccc([nH]4)c(-c4ccc(C(=O)O)cc4)c4nc(c(-c5ccc(C(=O)O)cc5)c5ccc2[nH]5)C=C4)C=C3)cc1
Response: 4.04 ± 0.01 ×10^12 L/mol/s

Prompt: Tell us which Kq value is on record for Nc1ccc(-c2c3nc(c(-c4ccc(N)cc4)c4ccc([nH]4)c(-c4ccc(N)cc4)c4nc(c(-c5ccc(N)cc5)c5ccc2[nH]5)C=C4)C=C3)cc1
Response: 4.07 ± 0.05 ×10^12 L/mol/s

Prompt: Tell us which Kq value is on record for O=C(O)c1ccc(-c2c3nc(c(-c4ccc(C(=O)O)cc4)c4ccc([nH]4)c(-c4ccc(C(=O)O)cc4)c4nc(c(-c5ccc(C(=O)O)cc5)c5ccc2[nH]5)C=C4)C=C3)cc1.[Cu+2]
Response: 4.37 ± 0.07 ×10^12 L/mol/s

Source: paper PMC12467033
